Values from patent US10251845B2

TEST_DESCRIPTION: Oral cannulated rat PK study (portal and jugular vein)
Format: in vivo, Sprague Dawley rats
EXPERIMENTAL_CONTEXT: rat, oral; as restated in Example 23

SMILES_NOTATION	RESULT_UNITS	peripheral AUClast
CC/C=C\C/C=C\C/C=C\C/C=C\C/C=C\C/C=C\CCC(=O)NCCSSC(C)(C)CNC(=O)c1cccnc1	ng·h/mL	102
CC/C=C\C/C=C\C/C=C\C/C=C\C/C=C\CCCC(=O)NCCSSCCNC(=O)c1cccnc1	ng·h/mL	0.889

###

TEST_DESCRIPTION: Oral cannulated rat PK study (portal and jugular vein)
Assay type: in vivo, Sprague Dawley rats
EXPERIMENTAL_CONTEXT: Sprague Dawley, jugular vein blood (peripheral); rat, oral, systemic circulation (jugular vein); read-out: peripheral Cmax
Reported Cmax values for the following molecules.
ENDPOINT: Cmax (ng/mL)

SMILES_NOTATION	ENDPOINT	TEST_VALUE
CC/C=C\C/C=C\C/C=C\C/C=C\C/C=C\C/C=C\CCC(=O)NCCSSC(C)(C)CNC(=O)c1cccnc1	Cmax	102
CC/C=C\C/C=C\C/C=C\C/C=C\C/C=C\CCCC(=O)NCCSSCCNC(=O)c1cccnc1	Cmax	0.889
